B1: library; a variant is named by its letters at N, in order (parent)
chain: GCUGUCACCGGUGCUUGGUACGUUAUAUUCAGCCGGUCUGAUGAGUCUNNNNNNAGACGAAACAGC

- Variants of: B1
- PROTOCOL: normalized RNA/DNA level with ligand (relative to sTRSVctl = 100) (log10 (% of sTRSVctl)); HEK293T overexpressing SLC46A1; ligand concentration (+) RNA-Seq: 6 mM; higher = less ribozyme self-cleavage, higher mRNA level
- EXPERIMENTAL_SETUP: with (6R,S)-folinic acid; ligand present: yes
Would you kindly list normalized RNA/DNA level with ligand (log10) for each of these variants?
Reply: number alone, nothing else.

So what's the measured normalized RNA/DNA level with ligand (log10) for this one? UCGCCC
2.04

So what's the measured normalized RNA/DNA level with ligand (log10) for this one? CUAUGC
2.04

So what's the measured normalized RNA/DNA level with ligand (log10) for this one? GGGCGC
2.04

So what's the measured normalized RNA/DNA level with ligand (log10) for this one? ACUCGG
2.02

So what's the measured normalized RNA/DNA level with ligand (log10) for this one? CCAAGG
1.99

So what's the measured normalized RNA/DNA level with ligand (log10) for this one? AAGGGC
2.05

So what's the measured normalized RNA/DNA level with ligand (log10) for this one? CAUACA
1.98

So what's the measured normalized RNA/DNA level with ligand (log10) for this one? AAGUCC
2.01

So what's the measured normalized RNA/DNA level with ligand (log10) for this one? UGGUUG
1.98

So what's the measured normalized RNA/DNA level with ligand (log10) for this one? AUUCCU
2.05

So what's the measured normalized RNA/DNA level with ligand (log10) for this one? AAAGUA
2

So what's the measured normalized RNA/DNA level with ligand (log10) for this one? UUCGCC
2.01

So what's the measured normalized RNA/DNA level with ligand (log10) for this one? GCCAAU
2

So what's the measured normalized RNA/DNA level with ligand (log10) for this one? CGUAAU
1.96

So what's the measured normalized RNA/DNA level with ligand (log10) for this one? UCUGUA
2.04

So what's the measured normalized RNA/DNA level with ligand (log10) for this one? GUAAGC
2.01

So what's the measured normalized RNA/DNA level with ligand (log10) for this one? UGGACC
1.97

So what's the measured normalized RNA/DNA level with ligand (log10) for this one? GUCGGU
2.06

So what's the measured normalized RNA/DNA level with ligand (log10) for this one? GGAUCU
2.03

So what's the measured normalized RNA/DNA level with ligand (log10) for this one? AAUUGU
1.98

So what's the measured normalized RNA/DNA level with ligand (log10) for this one? UAAUAA
1.98

So what's the measured normalized RNA/DNA level with ligand (log10) for this one? GUCAGU
2.04

So what's the measured normalized RNA/DNA level with ligand (log10) for this one? UUCCCU
2.06

So what's the measured normalized RNA/DNA level with ligand (log10) for this one? CGGUGA
2.04

So what's the measured normalized RNA/DNA level with ligand (log10) for this one? AUGUUG
2.02

So what's the measured normalized RNA/DNA level with ligand (log10) for this one? CUAUUC
2.01

So what's the measured normalized RNA/DNA level with ligand (log10) for this one? CCGAUC
2.03

So what's the measured normalized RNA/DNA level with ligand (log10) for this one? UAGAGU
1.99

So what's the measured normalized RNA/DNA level with ligand (log10) for this one? AUGUGG
2.01

So what's the measured normalized RNA/DNA level with ligand (log10) for this one? GCAUAU
2

So what's the measured normalized RNA/DNA level with ligand (log10) for this one? UCUAAC
2.03

So what's the measured normalized RNA/DNA level with ligand (log10) for this one? GGGUGG
2.04

So what's the measured normalized RNA/DNA level with ligand (log10) for this one? UGCUGG
2.02
